Test system: A. fumigatus MYA-3626
Experiment: MEC assay (Example 31)
Type: cell-based
Details: RPMI pH 7.0, 35° C., 24-48 hr
Provide the reported MEC of each item.

Specify reported MEC for the molecule shown: CC[C@H](C)C[C@H](C)CCCCCCCCC(=O)N[C@H]1C[C@@H](O)[C@@H](OCCNC(=O)[C@H](Cc2ccccc2)NC(=O)[C@H](CC(C)C)NC(=O)[C@H](CCSC)NC=O)NC(=O)[C@@H]2[C@@H](O)CCN2C(=O)[C@H]([C@H](O)CCN)NC(=O)[C@H]([C@H](O)[C@@H](O)c2ccc(O)cc2)NC(=O)[C@@H]2C[C@@H](O)CN2C(=O)[C@H]([C@@H](C)O)NC1=O 0.06 to 0.25 µg/mL

Specify reported MEC for the molecule shown: CC[C@H](C)C[C@H](C)CCCCCCCCC(=O)N[C@H]1C[C@@H](O)[C@@H](NCCNC(=O)C(Cc2ccccc2)NC(=O)C(CC(C)C)NC(=O)C(CCSC)NC(=O)Nc2ccc(Cl)cc2)NC(=O)[C@@H]2[C@@H](O)CCN2C(=O)[C@H]([C@H](O)CCN)NC(=O)[C@H]([C@H](O)[C@@H](O)c2ccc(O)cc2)NC(=O)[C@@H]2C[C@@H](O)CN2C(=O)[C@H]([C@@H](C)O)NC1=O (single isomer, unassigned) [Compound 13b] 0.25 µg/mL

Specify reported MEC for the molecule shown: CC[C@H](C)C[C@H](C)CCCCCCCCC(=O)N[C@H]1C[C@@H](O)[C@@H](NCCNC(=O)[C@H](Cc2ccccc2)NC(=O)[C@H](CC(C)C)NC(=O)[C@H](CCSC)NC=O)NC(=O)[C@@H]2[C@@H](O)CCN2C(=O)[C@H]([C@H](O)CCN)NC(=O)[C@H]([C@H](O)[C@@H](O)c2ccc(O)cc2)NC(=O)[C@@H]2C[C@@H](O)CN2C(=O)[C@H]([C@@H](C)O)NC1=O 0.25-1^ μg/mL

Hey, just so you know, these numbers are from patent US20160213742A1.
